Reference for the values: patent US5527796A

The following compounds are shown together with reported pIC50 values.
- Target or system: 5-lipoxygenase (Rattus norvegicus)
- Construct: neutrophils harvested by aspiration; endogenous in cells
- Sequence (P12527 1-673): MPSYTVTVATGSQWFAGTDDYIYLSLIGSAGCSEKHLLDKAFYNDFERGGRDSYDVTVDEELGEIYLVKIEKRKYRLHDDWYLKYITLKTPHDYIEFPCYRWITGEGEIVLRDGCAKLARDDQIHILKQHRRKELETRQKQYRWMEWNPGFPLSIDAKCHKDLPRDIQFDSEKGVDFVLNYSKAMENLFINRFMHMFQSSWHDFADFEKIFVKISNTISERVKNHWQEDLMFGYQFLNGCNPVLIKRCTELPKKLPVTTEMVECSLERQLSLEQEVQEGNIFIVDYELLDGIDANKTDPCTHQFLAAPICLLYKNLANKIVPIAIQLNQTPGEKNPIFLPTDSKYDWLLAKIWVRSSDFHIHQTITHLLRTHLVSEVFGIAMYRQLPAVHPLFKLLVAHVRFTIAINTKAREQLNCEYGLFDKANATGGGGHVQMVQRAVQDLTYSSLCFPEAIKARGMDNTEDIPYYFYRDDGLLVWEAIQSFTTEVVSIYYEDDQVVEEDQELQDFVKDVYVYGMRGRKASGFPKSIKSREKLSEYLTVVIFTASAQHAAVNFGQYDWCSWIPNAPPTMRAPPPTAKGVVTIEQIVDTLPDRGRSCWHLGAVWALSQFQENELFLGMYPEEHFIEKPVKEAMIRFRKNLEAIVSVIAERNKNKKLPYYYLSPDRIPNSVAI
- Assay name: formation of LTB4 by neutrophils as a measure for 5-lipoxygenase activity (A23187-stimulated, RIA)
- Run conditions: A23187 2 μmol/l, 5 min at 37° C.
Remember the convention: pIC50 equals -log10 of concentration in molar.

Which pIC50 value belongs to `CN1C(C(=O)Nc2cccc(COc3ccc(F)cc3)n2)=C(O)c2sc(Cl)cc2S1(=O)=O` ?
5.32

Which pIC50 value belongs to `CN1C(C(=O)Nc2cccc(COc3ccccc3)n2)=C(O)c2sc(Cl)cc2S1(=O)=O` ?
5.14

---

- Target or system: 5-lipoxygenase (Rattus norvegicus, UniProt P12527)
- Construct: neutrophils harvested by aspiration; endogenous in cells; host or cells: peritoneal neutrophils of male Sprague Dawley rats, harvested 16 h after intraperitoneal carrageenan
- Sequence (P12527 1-673): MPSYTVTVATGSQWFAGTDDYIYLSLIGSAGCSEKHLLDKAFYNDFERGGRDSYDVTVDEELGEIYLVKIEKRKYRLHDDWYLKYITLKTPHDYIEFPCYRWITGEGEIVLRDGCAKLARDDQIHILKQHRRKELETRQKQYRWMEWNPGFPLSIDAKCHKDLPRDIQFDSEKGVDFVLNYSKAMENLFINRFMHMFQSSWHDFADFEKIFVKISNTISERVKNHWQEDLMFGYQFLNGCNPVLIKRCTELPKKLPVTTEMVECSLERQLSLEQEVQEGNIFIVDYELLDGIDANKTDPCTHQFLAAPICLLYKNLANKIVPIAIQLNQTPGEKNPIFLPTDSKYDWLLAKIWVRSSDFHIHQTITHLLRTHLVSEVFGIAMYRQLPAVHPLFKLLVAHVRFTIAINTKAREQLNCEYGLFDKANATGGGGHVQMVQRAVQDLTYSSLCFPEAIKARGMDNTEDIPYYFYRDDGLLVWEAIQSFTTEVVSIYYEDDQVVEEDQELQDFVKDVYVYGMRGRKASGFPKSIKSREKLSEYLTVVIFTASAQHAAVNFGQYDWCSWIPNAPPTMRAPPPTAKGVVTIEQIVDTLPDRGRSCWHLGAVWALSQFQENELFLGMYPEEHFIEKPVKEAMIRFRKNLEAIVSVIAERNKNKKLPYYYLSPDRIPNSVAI
- Assay name: formation of LTB4 by neutrophils as a measure for 5-lipoxygenase activity (A23187-stimulated, RIA)
- Type: cell-based, Male Sprague Dawley rats
- Run conditions: A23187 2 μmol/l, 5 min at 37° C.
Note to self: IC50 under 4 µM means yes, ties and anything higher get no.

Sample answers from the record:
Molecule | Target or system | Class label
CN1C(C(=O)Nc2ccccn2)=C(O)c2sc(Cl)cc2S1(=O)=O [Compound A, reference compound] | 5-lipoxygenase (Rattus norvegicus, UniProt P12527) | no
CN1C(C(=O)Nc2cccc(OCc3cc4ccccc4s3)n2)=C(O)c2sc(Cl)cc2S1(=O)=O | 5-lipoxygenase (Rattus norvegicus, UniProt P12527) | yes
CN1C(C(=O)Nc2cccc(CCCc3ccccc3)n2)=C(O)c2sc(Cl)cc2S1(=O)=O | 5-lipoxygenase (Rattus norvegicus, UniProt P12527) | no
CN1C(C(=O)Nc2cccc(-c3cc4ccccc4o3)n2)=C(O)c2sc(Cl)cc2S1(=O)=O | 5-lipoxygenase (Rattus norvegicus, UniProt P12527) | yes
CN1C(C(=O)Nc2cccc(CCCCc3ccccc3)n2)=C(O)c2sc(Cl)cc2S1(=O)=O | 5-lipoxygenase (Rattus norvegicus, UniProt P12527) | yes
CN1C(C(=O)Nc2cccc(C#Cc3ccccc3)n2)=C(O)c2sc(Cl)cc2S1(=O)=O | 5-lipoxygenase (Rattus norvegicus, UniProt P12527) | yes
CN1C(C(=O)Nc2cccc(OCc3ccccc3)n2)=C(O)c2sc(Cl)cc2S1(=O)=O | 5-lipoxygenase (Rattus norvegicus, UniProt P12527) | no
CN1C(C(=O)Nc2cccc(CCc3ccccc3)n2)=C(O)c2sc(Cl)cc2S1(=O)=O | 5-lipoxygenase (Rattus norvegicus, UniProt P12527) | yes
CN1C(C(=O)Nc2cccc(/C=C/c3ccccc3)n2)=C(O)c2sc(Cl)cc2S1(=O)=O | 5-lipoxygenase (Rattus norvegicus, UniProt P12527) | no

Next item in the queue.
IC50 strictly < 4 µM for this molecule? `CN1C(C(=O)Nc2cccc(OCc3ccc4ccccc4n3)n2)=C(O)c2sc(Cl)cc2S1(=O)=O`
yes
